Test: Confirmatory qHTS for Identification of Small Molecule Activators of Huntingtin-Antisense Promoter Activity
Conditions: HEK293 HTT-AS promoter firefly luciferase reporter, 24 h; series mostly up to 57.5 µM
Calls of active or inactive are those of the source. The call rests on the fitted dose curve; in most records, active means well fitted activation curve with a large enough effect; inconclusive means small, poorly fitted or top-dose-only effect; inactive means no such curve, though single readings can be large or run the other way.
Pick from active, inactive when you respond.

{"columns": ["Compound", "Category Label"],
 "data": [
  ["Cc1csc2nc(COC(=O)c3ccccc3NC(=O)c3ccccc3Cl)cc(=O)n12", "inactive"],
  ["O=C(Nc1cccc(Cl)c1)C1CCCN(c2nn3cc(-c4ccc(F)cc4)nc3s2)C1 (centres undefined)", "inactive"],
  ["O=C(Nc1cccc(Cl)c1)c1ccc(F)c(S(=O)(=O)N2CCC3(CC2)OCCO3)c1", "inactive"],
  ["Cc1ccc(Nc2ccc(N3CCN(C(=O)c4ccc([N+](=O)[O-])cc4Cl)CC3)nn2)cc1", "inactive"],
  ["O=C(CN1C(=O)C2(SCC(=O)N2c2cccc(Cl)c2)c2ccccc21)NCCc1ccccc1 (centres undefined)", "inactive"]
]}

query: What call does the record list for COc1cccc(-c2cn3c(n2)sc2cc(C(=O)NCc4cccs4)ccc23)c1 ?
result: active

query: What call does the record list for CCc1ccc(NC(=O)c2ccc(F)c(S(=O)(=O)N3CCC4(CC3)OCCO4)c2)cc1 ?
result: inactive

query: What call does the record list for Cc1cc(NC(=O)c2cc(Cl)ccc2Cl)ccc1-c1cc2ccccc2oc1=O ?
result: inactive

query: What call does the record list for CC1Cc2cc(S(=O)(=O)NCc3ccccc3)ccc2N1C(=O)C1CCC1 (centres undefined) ?
result: inactive

---

Assay: Confirmatory qHTS for Identification of Small Molecule Activators of Huntingtin-Antisense Promoter Activity
Conditions: HEK293 HTT-AS promoter firefly luciferase reporter, 24 h; series mostly up to 57.5 µM
Active and inactive are the calls of the source. The call rests on the fitted dose curve; in most records, active means well fitted activation curve with a large enough effect; inconclusive means small, poorly fitted or top-dose-only effect; inactive means no such curve, though single readings can be large or run the other way.
Pick from TRUE = active, FALSE = inactive when you respond.

Solved entries:
{"columns": ["Molecule", "Category Label"],
 "data": [
  ["CSc1cccc(NC(=O)C2CCN(S(=O)(=O)c3ccc4[nH]c5c(c4c3)CCCCC5)CC2)c1", "FALSE"],
  ["Cc1cc(N2CCCCC2)nc2ccc(NC(=O)/C=C/c3ccc(OC(C)C)cc3)cc12", "FALSE"],
  ["CCOCc1cc(CN2CCN(c3ccccc3OC)CC2)c(O)c2ncccc12", "FALSE"],
  ["Cc1ccccc1CNC(=O)c1ccc(-c2nc(CS(=O)(=O)c3ccccc3)c(C)o2)cc1", "FALSE"],
  ["Cc1ccc(S(=O)(=O)Nc2cccc(-c3ccc(N4CCCCC4)nn3)c2)s1", "TRUE"],
  ["CCc1ccccc1-n1nnc(-c2nsc(NC(=O)c3ccc(C)c(C)c3)n2)c1C", "FALSE"],
  ["O=C(C1CCC1)N1CCCc2cc(S(=O)(=O)N3CCN(c4ccccc4)CC3)ccc21", "FALSE"],
  ["Cc1ccccc1NC(=O)c1sc2nc3c(cc2c1N)CN(Cc1ccccc1)CC3", "FALSE"],
  ["CCn1c(SCc2cccc(Br)c2)nnc1-c1nonc1NC(C)=O", "FALSE"],
  ["CCC(=O)N1CCCc2cc(S(=O)(=O)N3CCC(C(=O)Nc4ccccc4CC)CC3)ccc21", "FALSE"]
]}

query: What call does the record list for O=C(NC1CCCCC1)c1ccc(CSc2nc3cccnc3n2Cc2cccc(F)c2)cc1 ?
result: FALSE

query: What call does the record list for CCCN(C(=O)CCc1nc(-c2ccc(C)cc2)no1)c1ccc(OCC)cc1 ?
result: FALSE

query: What call does the record list for CCCN(c1ccccc1CC)S(=O)(=O)c1ccc2c(c1)CC(C)N2C(=O)C1CC1 (stereo not given) ?
result: FALSE

query: What call does the record list for COc1ccc(S(=O)(=O)NCCc2cc3ccc(C)c(C)c3[nH]c2=O)cc1 ?
result: FALSE

---

Test: Confirmatory qHTS for Identification of Small Molecule Activators of Huntingtin-Antisense Promoter Activity
Conditions: HEK293 HTT-AS promoter firefly luciferase reporter, 24 h; series mostly up to 57.5 µM
Calls of active or inactive are those of the source. Calls come from the whole dose curve; as a rule, active = well fitted activation curve with a large enough effect; inconclusive = small, poorly fitted or top-dose-only effect; inactive = no such curve, though single readings can be large or run the other way.
Pick from yes = active, no = inactive when you respond.

{"columns": ["Molecule", "Category Label"],
 "data": [
  ["O=c1c(-c2ccc(O)cc2)coc2cc(O)ccc12", "yes"],
  ["COc1ccc(C2(CNC(=O)C(=O)Nc3cccc(C(F)(F)F)c3)CCCC2)cc1OC", "no"],
  ["COc1cccc(C(=O)N2c3cc(C)ccc3C(C)(c3ccccc3)CC2(C)C)c1 (centres undefined)", "no"],
  ["CCSc1ncc(Cl)c(C(=O)Nc2ccc(S(=O)(=O)N3CCC(C)CC3)cc2)n1", "no"],
  ["CCOC(=O)C1=C(CN2CCN(c3ccc(C)cc3C)CC2)NC(=O)NC1c1ccc(OC)cc1 (centres undefined)", "no"]
]}

query: What call does the record list for Cc1oc(-c2ccc(C(=O)Nc3cccc(C(F)(F)F)c3)cc2)nc1CSc1ccccc1 ?
result: no

query: What call does the record list for CCc1ccc(NC(=O)c2ccc(F)c(S(=O)(=O)NCCc3ccc(OC)c(OC)c3)c2)cc1 ?
result: no

query: What call does the record list for CCCCN(C)S(=O)(=O)c1cc(-c2cc(C)no2)ccc1C ?
result: no

query: What call does the record list for CCOC(=O)c1cccc(NC(=O)CCn2c(-c3ccc(F)cc3)cc(C(=O)OCC)c2C)c1 ?
result: no

query: What call does the record list for O=C(Cn1c(=O)oc2cc(S(=O)(=O)N3CCCCCC3)ccc21)Nc1cccc(C(F)(F)F)c1 ?
result: no

---

Assay: Confirmatory qHTS for Identification of Small Molecule Activators of Huntingtin-Antisense Promoter Activity
Details: HEK293 HTT-AS promoter firefly luciferase reporter, 24 h; series mostly up to 57.5 µM
Active and inactive are the calls of the source. The call rests on the fitted dose curve; in most records, active means well fitted activation curve with a large enough effect; inconclusive means small, poorly fitted or top-dose-only effect; inactive means no such curve, though single readings can be large or run the other way.
Pick from true = active, false = inactive when you respond.

{"columns": ["Compound", "Category Label"],
 "data": [
  ["CCc1ccc(NC(=O)C2CCCN(S(=O)(=O)c3cccc4nsnc34)C2)cc1 (stereo not given)", "false"],
  ["CCOC(=O)C1=C(CN2CCN(c3ccccc3F)CC2)NC(=O)NC1c1ccc(OC)cc1 (stereo not given)", "false"],
  ["CCC(C(=O)NCCc1ccc(SC)cc1)n1nc(C)c2c(C)n(-c3ccc(C)cc3)nc2c1=O (stereo not given)", "false"]
]}

query: What call does the record list for Cc1ccc(C)c(N2CCN(C(=O)C3CCCN(S(=O)(=O)c4ccc5c(c4)oc(=O)n5C)C3)CC2)c1 (stereo not given) ?
result: false

query: What call does the record list for CCc1ccccc1N(C)C(=O)C1CCCN(c2ncnc3c2nc2n3CCCCC2)C1 (stereo not given) ?
result: false

query: What call does the record list for Cc1cccc(CS(=O)(=O)Cc2ccc(C(=O)NCc3ccc(Cl)cc3)o2)c1 ?
result: false

query: What call does the record list for Cc1cccc(N2CCN(C(=O)c3ccc(NC(=O)c4nsc5ccccc45)cc3)CC2C)c1 (stereo not given) ?
result: true

query: What call does the record list for CCN(Cc1ccccc1)S(=O)(=O)c1ccc(N2CCCCS2(=O)=O)cc1 ?
result: false

query: What call does the record list for C#C[C@]1(O)CC[C@H]2[C@H]3CCc4cc(OC)ccc4[C@H]3CC[C@@]21C ?
result: false

query: What call does the record list for COc1ccc(NC(=O)c2ccc(-c3nc(CSc4ccccc4)c(C)o3)cc2)cc1OC ?
result: false

query: What call does the record list for CCOc1ccc(C(=O)NCc2ccc3c(c2)CCN3C(=O)c2ccccc2)cc1 ?
result: false

query: What call does the record list for COc1ccc(S(=O)(=O)N(CCc2ccccc2)CC(=O)Nc2cc(C)cc(C)c2)cc1OC ?
result: false

query: What call does the record list for CCOC(=O)c1ccc(C#Cc2ccc3c(c2)C(C)(C)CCS3)nc1 ?
result: false

query: What call does the record list for COc1ccc(NC(=O)Cn2c(=O)oc3cc(S(=O)(=O)N4CCCCCC4)ccc32)cc1OC ?
result: false

query: What call does the record list for COc1cccc(C2=CC(c3cc(Br)ccc3F)n3nnnc3N2)c1 (stereo not given) ?
result: false

query: What call does the record list for Cc1ccc(CSc2ncc(Cl)c(C(=O)NCCc3ccc(S(N)(=O)=O)cc3)n2)cc1 ?
result: false

query: What call does the record list for COc1ccc(Nc2c3c(nc4ccc(NC(=O)/C=C/c5cccc(OC)c5OC)cc24)CCCC3)cc1OC ?
result: false

---

Assay: Confirmatory qHTS for Identification of Small Molecule Activators of Huntingtin-Antisense Promoter Activity
Conditions: HEK293 HTT-AS promoter firefly luciferase reporter, 24 h; series mostly up to 57.5 µM
Calls of active or inactive are those of the source. Calls come from the whole dose curve; as a rule, active = well fitted activation curve with a large enough effect; inconclusive = small, poorly fitted or top-dose-only effect; inactive = no such curve, though single readings can be large or run the other way.
Pick from class 1 = active, class 0 = inactive when you respond.

Solved entries:
{"columns": ["Compound", "Category Label"],
 "data": [
  ["CCN(CC)CCNC(=O)c1c(C)[nH]c(C=C2C(=O)Nc3ccc(F)cc32)c1C", "class 0"],
  ["CCN(C(=O)c1oc2ccc(S(=O)(=O)N3CCCCCC3)cc2c1C)c1ccccc1", "class 0"],
  ["COc1cc(CNC(=O)c2ccc3nc(Cc4ccccc4)oc3c2)cc(OC)c1OC", "class 0"],
  ["O=C(NCC(c1ccccc1)c1ccccc1)c1nn(-c2ccccc2F)nc1CO", "class 0"],
  ["COc1cc(CNc2ccc3[nH]c(=O)[nH]c3c2)cc(Br)c1OCc1ccc(F)cc1", "class 0"],
  ["COc1ccc(Br)cc1CNC(=O)CSc1n[nH]c(-c2ccccc2)n1", "class 0"],
  ["Cc1ccccc1CN1CCc2nc(N3CCN(c4ccccn4)CC3)ncc2C1", "class 0"],
  ["Cc1cccc(-c2nc(CSCC(=O)N3CCN(c4ccccc4)CC3)c(C)o2)c1", "class 0"],
  ["CCC(=O)N1CCc2cc(S(=O)(=O)NCCC(=O)Nc3ccc(CC)cc3)ccc21", "class 0"],
  ["CC(C)c1ccc(CNC(=O)c2ccc(N3CCCC3)c(NC(=O)NCc3ccccc3)c2)cc1", "class 0"]
]}

query: What call does the record list for COc1cccc(C(=O)Nc2nc(-c3nnn(-c4cccc(Cl)c4C)c3C)ns2)c1 ?
result: class 0

query: What call does the record list for CN1CCCC(n2nc(Cc3ccc(Cl)cc3)c3ccccc3c2=O)CC1 (configuration not stated) ?
result: class 0

query: What call does the record list for COc1ccc(Cn2c(CO)cnc2SCc2ccc(F)cc2)cc1 ?
result: class 0

query: What call does the record list for O=c1cc(-c2ccccc2)oc2cc(O)cc(O)c12 ?
result: class 1

query: What call does the record list for CCc1cccc(C)c1NC(=O)COCc1cc(-c2ccc3c(c2)OCO3)on1 ?
result: class 0

query: What call does the record list for CCC1=C(c2ccc(C)cc2)S(=O)(=O)N=C1N1CCC(C(=O)NCCc2ccc(Cl)cc2)CC1 ?
result: class 0

query: What call does the record list for CC1CCN(C(=O)CSc2nnc(NC(=O)Nc3ccccc3)s2)CC1 ?
result: class 0
